species: Rattus norvegicus; test: Open TG-GATES - Regimen: Daily Repeat; format: toxicity, organism-based, Sprague-Dawley; design: regimen Daily Repeat, gender Male, age 6 weeks; conditions: in vivo, po, 0 mg/kg, […], tissue Blood, route gavage, dose level Control, time 7 day
Could you please report measured Ht for the items listed next?
Write the numeric value and append its unit.

Here's what some known entries look like.
{"columns": ["compound", "Ht"],
 "data": [
  ["CN(C)CCCN1c2ccccc2CCc2ccccc21 [IMIPRAMINE]", "41.2%"],
  ["CCCNC(=O)NS(=O)(=O)c1ccc(Cl)cc1 [CHLORPROPAMIDE]", "40.9%"],
  ["NNC(=O)c1ccncc1 [ISONIAZID]", "41.5%"],
  ["COc1ccc2[nH]c([S+]([O-])Cc3ncc(C)c(OC)c3C)nc2c1 (stereo not drawn) [OMEPRAZOLE]", "40.3%"],
  ["COC1=CC(=O)C[C@@H](C)[C@]12Oc1c(Cl)c(OC)cc(OC)c1C2=O [GRISEOFULVIN]", "42%"],
  ["CC1=C(/C=C/C(C)=C/C=C/C(C)=C/CO)C(C)(C)CCC1 [RETINOL]", "38.8%"],
  ["CN1C(=O)CN=C(c2ccccc2)c2cc(Cl)ccc21 [DIAZEPAM]", "42.8%"],
  ["O=C(CCCN1CCC(O)(c2ccc(Cl)cc2)CC1)c1ccc(F)cc1 [HALOPERIDOL]", "41.8%"]
]}

Please state, for each entry, its recorded Ht.
1. NC(N)=Nc1nc(CSCCC(N)=NS(N)(=O)=O)cs1 [FAMOTIDINE]
2. CC(C)OC(=O)C(C)(C)Oc1ccc(C(=O)c2ccc(Cl)cc2)cc1 [FENOFIBRATE]
3. CCOc1ccc(NC(=O)CC(C)O)cc1 (stereo not drawn) [BUCETIN]
4. CCOC(=O)CCC(=O)O[C@H]1[C@H](O[C@@H]2[C@@H](C)[C@H](O[C@H]3C[C@@](C)(OC)[C@@H](O)[C@H](C)O3)[C@@H](C)C(=O)O[C@H](CC)[C@@](C)(O)[C@H](O)[C@@H](C)C(=O)[C@H](C)C[C@@]2(C)O)O[C@H](C)C[C@@H]1N(C)C [ERYTHROMYCIN ETHYLSUCCINATE]
5. CN(C)CCN(Cc1cccs1)c1ccccn1

38.3%
41.5%
40%
41.9%
39.8%
